Tested on: KM12 colon
Assay: NCI-60 one-dose screen, 48 h
Details: 10 µM unless noted
Compounds without any hit were thinned out: in the full panel of roughly 83,000, 20% have a hit. The source made the active and inactive calls. The calls were made as follows: active = growth percent below 10; inactive = the rest.
Labels: active, inactive

CCN(CC)CCOC(=O)C(OC(C)C)(c1ccccc1)c1ccccc1 ... inactive
COP(=S)(N1CC1)N1CC1 ... inactive
O=C([O][Hg][CH2]C1OCCOC1[CH2][Hg][O]C(=O)c1ccccc1)c1ccccc1 (stereo not given) ... inactive
CCC(CC)CC1(C)CC2(C)CCOC2OO1 (stereo not given) ... inactive
COc1cc(/C=C\c2cc(OC)c(OC)c(OC)c2)cc(NS(=O)(=O)c2cccc(Cl)c2)c1OC ... active
CN(C)C(=O)Oc1ccc(Br)cc1 ... inactive
CCCCNC(c1ccc(Cl)cc1)C(O)c1ccc(Cl)cc1 (stereo not given) ... inactive
C=C(C)[C@@]12OC3(/C=C/C=C/CCCCC)O[C@@H]1[C@@H]1[C@@H]4O[C@]4(CO)[C@@H](O)[C@]4(O)C(=O)C(C)=C[C@H]4[C@@]1(O3)[C@H](C)[C@H]2OC(=O)c1ccccc1 ... active
COC(=O)[C@@H](C)C[C@H](Cc1ccccc1)NC(=O)c1cccc([C@@H](C[C@H](C(C)C)N(C)C(=O)[C@@H](NC(=O)[C@H]2CCCCN2C)C(C)C)OC(C)=O)n1 ... active
ClC1=C(Cl)C(Cl)(C2(Cl)C(Cl)=C(Cl)C(Cl)=C2Cl)C(Cl)=C1Cl ... inactive
COc1ccc(NC([Se])=NC23CC4CC(CC(C4)C2)C3)cc1 ... active
COC(=O)C1CCC(NC(=O)c2csc([C@@H](C[C@H](C(C)C)N(C)C(=O)[C@@H](NC(=O)[C@H]3CCCCN3C)C(C)C)OC(C)=O)n2)CC1 (stereo not given in full) ... active
C[S+]1C=Cc2ccccc2C1c1ccc(Cl)cc1 (stereo not given) ... active
C[C@@H]1C[C@@]2(C)[C@@H](CC[C@@H]3[C@@H]2CC[C@]2(C)C(=O)CC[C@@H]32)CC1=O ... inactive
O=C(O)C(Cl)(Cl)C(F)(F)F ... inactive
Nc1nc([Se])c2ncn(C3OC(CO)C(O)C3O)c2n1 (stereo not given) ... inactive
C/C(Cc1ccc(Cl)cc1)=C(\c1ccc(OCCN2CCOCC2)cc1)c1ccc(OC(=O)Cc2ccccc2)cc1 ... inactive
[Au+].[N-]=C=O.c1ccc(CN2[CH-]N(Cc3ccccc3)C(c3ccccc3)=C2c2ccccc2)cc1 ... inactive
Cn1cc(-c2csc(-c3cn(CCCCN4CCCCC4)c4ccccc34)n2)c2cccnc21 ... active
Fc1cccc(NCOOC2(OOCNc3cccc(F)c3)CCCCC2)c1 ... inactive
Nc1nnnc2nc[nH]c12 ... inactive
ClCCN(CCCl)c1ccc(-n2cnc3c(Cl)ncnc32)cc1 ... inactive
CC(=O)OCc1cc[c]([Hg][Cl])o1 ... inactive
CC1(C)N=C(N)N=C(N)N1c1ccc(CCCCc2ccc(Cl)c(S(=O)(=O)F)c2)c(Cl)c1 ... inactive
CN(C)CC(C(=O)Cc1ccccc1)c1ccccc1 (stereo not given) ... active
CCCCC1(CCC)C(=O)NC(=S)NC1=O ... inactive
CCn1c2ccccc2c2cc(C(=O)c3ccc(C)c4ccccc34)ccc21 ... inactive
CCCCN(CCCC)P(=O)(Oc1ccccc1)Oc1ccccc1 ... inactive
O=[N+]([O-])c1cnc[nH]1 ... inactive
CCCCCCCCCCCCCC[P+](CCCCCC)(CCCCCC)CCCCCC ... active
N#C[Se]Cc1cc(-c2ccccc2)n(-c2ccc(S(N)(=O)=O)cc2)n1 ... active
COC(=O)[C@@H](C)C[C@H](Cc1ccccc1)NC(=O)c1csc([C@@H](C[C@H](C(C)C)N(C)C(=O)[C@@H](NC(=O)C23CC(NC(C)=O)(C2)C3)C2CC2)OC(C)=O)n1 ... inactive
Brc1ccc2c(c1)c(-c1nc(-c3c[nH]c4ncccc34)cs1)cn2CCN1CCCCC1 ... inactive
O=C(N/N=C\c1ccc(N(CCCl)CCCl)cc1)c1cccc([N+](=O)[O-])c1 ... inactive
COc1ccc(/C=C\c2cc(OC)c(OC)c(OC)c2)cc1OCC(=O)Nc1nc2ccc(OC(F)(F)F)cc2s1 ... inactive
Cc1cc(-c2nc3cc(F)ccc3[se]2)cc(F)c1N ... inactive
NC(=Nc1ccccc1)N[N+](=O)[O-] ... inactive
CC(C)CCC1(CCCl)C(=O)NC(=O)NC1=O ... inactive
COc1cc(/C=C\c2cc(OC)c(OC)c(OC)c2)cc(N/C=C\C(=O)c2cc(OC)c(OC)c(OC)c2)c1OC ... inactive
Fc1c[c-]c(-c2ccccn2)c(F)c1.[CH3-].[Pt+2].c1ccc([PH+](c2ccccc2)c2ccccn2)cc1 ... inactive
